Data credit: paper PMC5043372

// values below are reported pKd
Target: T1, SH2 domain of Monosiga brevicollis crka1 (Monosiga brevicollis, UniProt A0A1C9VNP8 1-97)
T1 chain: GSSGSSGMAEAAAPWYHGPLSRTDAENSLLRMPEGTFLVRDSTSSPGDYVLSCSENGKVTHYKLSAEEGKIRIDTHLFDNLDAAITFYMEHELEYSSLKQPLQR
Assay: ITC
Non-standard residues stand in square brackets, D forms with d. No end group written: not given here. pY = N[C@@H](Cc1ccc(OP(=O)(O)O)cc1)C(=O)O
Formally, pKd is defined as -log10 of the concentration c, with c in mol/L.

Recorded pKd, per entry:
AE[pY]QVPTS [Dok7 (Y396) peptide AE-pYQVP-TS] ... 4.37
EM[pY]DVPRS [phosphopeptide EM-pYDVP-RS of S. rosetta PTSG_05573] ... 3.93
DM[pY]DVPRN [phosphopeptide DM-pYDVP-RN of S. rosetta PTSG_05573] ... 4.21

q: Provide measured pKd value, entry: HH[pY]DTPRS [phosphotyrosyl peptide from M. musculus Dok7 (Y406)]
a: 5.06

q: Provide measured pKd value, entry: LN[pY]ENLPS [FRS2 Y349 peptide LN-pYENL-PS]
a: 3.90

q: Provide measured pKd value, entry: DE[pY]DTPRH [phosphotyrosyl peptide from M. musculus Bcar1 (p130Cas, Y238)]
a: 5.00
